substances and their reported Mean percent remaining mRNA transcript at siRNA concentration/in cell type 3 nM/HepG2
test system: PCSK9 mRNA; experiment: PCSK9 siRNA screening in HepG2 cells (lipofectamine 2000 transfection, PCSK9 mRNA by Quantigene, normalized to GAP-DH); type: cell-based, human; settings: 3 nM siRNA
In the oligonucleotide strings, read from the 5' end, every base follows the letter of its sugar. An asterisk marks phosphorothioate; unmarked linkages are phosphodiester. Other units and linkages are bracketed, terminal groups are in braces. A string of capitals states the bases alone. d = 2'-deoxy (DNA); m = 2'-O-methyl; r = 2'-OH (RNA)
Record the result as number plus unit.

Completed entries (count: 5):
substance="AD-9699: PCSK9 siRNA (sense rAmUrGrGmUmCrAmCmCrGrAmCmUmUmCrGrArGrAdT*dT; antisense rUrCrUrCrGrArArGrUrCrGrGrUrGrArCmCrArUdT*dT)" data_value=36%
substance="AD-9597: PCSK9 siRNA (sense rArGrCrCrArArGrCrCrUrCrUrUrCrUrUrArCrUdT*dT; antisense rArGrUrArArGrArArGrArGrGrCrUrUrGrGrCrUdT*dT)" data_value=21%
substance="AD-9703: PCSK9 siRNA (sense mCrAmCmCrArArGrGrArGrGmCrArGrGrAmUmUmCdT*dT; antisense rGrArArUrCrCrUrGrCrCrUrCrCrUrUrGrGrUrGdT*dT)" data_value=26%
substance="AD-9650: PCSK9 siRNA (sense rGmCmUrGrGmUrGmCmUrArGmCmCmUmUrGmCrGmUdT*dT; antisense rArCrGmCrArArGrGrCmUrArGmCrArCmCrArGrCdT*dT)" data_value=90%
substance="AD-9571: PCSK9 siRNA (sense rGrCrCrArGrGrUrGrCrUrGrCrCrUrGrCrUrArCdT*dT; antisense rGrUrArGrCrArGrGrCrArGrCrArCrCrUrGrGrCdT*dT)" data_value=32%

(Q) # query: Mean percent remaining mRNA transcript at siRNA concentration/in cell type 3 nM/HepG2 of entry AD-9657: PCSK9 siRNA (sense rArArAmUmCrGrArGrGrGmCrArGrGrGmUmCrAmUdT*dT; antisense rArUrGrArCrCrCrUrGrCrCrCrUrCrGrArUrUrUdT*dT)
(A) 29%

(Q) Entry AD-9761: PCSK9 siRNA (sense rGmUmCmUrGmCmCrGrArGmCmCrGrGrArGmCmUmCdT*dT; antisense rGrArGrCrUrCrCrGrGrCrUrCrGrGmCrArGrArCdT*dT) has what Mean percent remaining mRNA transcript at siRNA concentration/in cell type 3 nM/HepG2?
(A) 33%

(Q) Using the record for AD-9318: PCSK9 siRNA, less modified parent of AD-10794, AD-10795, AD-10797 (sense rUrCrArUrArGrGrCrCrUrGrGrArGrUrUrUrArUdT*dT; antisense rArUrArArArCrUrCrCrArGrGrCrCrUrArUrGrAdT*dT) , report its Mean percent remaining mRNA transcript at siRNA concentration/in cell type 3 nM/HepG2.
(A) 37%

(Q) Fill in the blank: the reported Mean percent remaining mRNA transcript at siRNA concentration/in cell type 3 nM/HepG2 of AD-9629: PCSK9 siRNA (sense rUrCrUrGrGrGrUrUrUrUrGrUrArGrCrArUrUrUdT*dT; antisense rArArArUrGrCrUrArCrArArArArCrCrCrArGrAdT*dT) is ____.
(A) 24%

(Q) Would you kindly share the measured Mean percent remaining mRNA transcript at siRNA concentration/in cell type 3 nM/HepG2 for AD-9639: PCSK9 siRNA (sense rGrUrGrCrUrGrArGrGrCrCrArCrGrArGrGrUrCdT*dT; antisense rGrArCrCrUrCrGrUrGrGrCrCrUrCrArGrCrArCdT*dT) ?
(A) 35%
